molecular target: BTK (Homo sapiens); experiment: biochemical; details: read-out: BTK inhibition (%), 0.75 uM BTK, […] probe 3l, 15 min preincubation
Where a SMILES comes first, the peptide text is derived from it. The star is where a group is joined. Cbz = O=C(OCc1ccccc1)*; CH2F = FC*
experimental_readout: inhibition at 10 µM (%)
Dear colleague, please return just the value in %, with no unit written.

// below: answered compounds
CC(=O)OCC(=O)[C@@]1(O)CC[C@H]2[C@@H]3CCC4=CC(=O)CC[C@]4(C)[C@@]3(F)[C@@H](O)C[C@@]21C    -8.3
Cc1cc(C)c(CNC(=O)c2cc(-c3ccc(N4CCN(C)CC4)nc3)cc3c2c(C)cn3C(C)C)c(=O)[nH]1    -6.9
COc1ccc(CCc2cc(OC)c(OC)c(OC)c2)cc1O    -24.7
CC(C)[C@H](NC(=O)OCc1ccccc1)C(=O)N[C@@H](C)C(=O)N[C@@H](CC(=O)O)C(=O)CF [PCM-0215591] (Cbz-Val-Ala-Asp-CH2F)    -5.4
CN1CCN(Cc2ccc(NC(=O)Cc3ccc(Oc4cc(NC(=O)C5CC5)ncn4)cc3)cc2C(F)(F)F)CC1    26.3
NC[C@H](CC(=O)O)c1ccc(Cl)cc1    -12.8
CCCn1c(NC(=O)c2cccc(C(N)=O)c2)nc2ccccc21    -12.4

// next item, inhibition at 10 µM requested
Exercise: Return reported inhibition at 10 µM; argument: `CN/C(=C\[N+](=O)[O-])NCCSCc1ccc(CN(C)C)o1`
Key: -3.4

====

target: BTK (Homo sapiens, UniProt Q06187); assay: biochemical; details: read-out: BTK inhibition (%), 0.75 uM BTK, […] probe 3l, 15 min preincubation
Sequence (Q06187 402-655 limits assumed): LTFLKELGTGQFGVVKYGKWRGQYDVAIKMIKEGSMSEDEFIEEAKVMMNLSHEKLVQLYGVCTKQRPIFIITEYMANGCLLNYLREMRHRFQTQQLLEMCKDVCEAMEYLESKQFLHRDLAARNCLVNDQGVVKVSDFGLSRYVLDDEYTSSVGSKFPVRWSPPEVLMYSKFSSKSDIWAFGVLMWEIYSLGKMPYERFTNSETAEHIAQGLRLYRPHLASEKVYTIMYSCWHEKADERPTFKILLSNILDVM
Everything with inhibition at 10 µM lower than 10% is 0; everything else, including exactly 10%, is 1.

Observe how each entry below is paired with its result.
C=C1/C(=C\C=C2/CCC[C@]3(C)[C@@H]([C@H](C)CCCC(C)C)CC[C@@H]23)C[C@@H](O)C[C@@H]1O    0
CCCC(=O)OCOC(=O)C1=C(C)NC(C)=C(C(=O)OC)C1c1cccc(Cl)c1Cl (stereo not drawn)    1
CNCCCC12CCC(c3ccccc31)c1ccccc12    1
CN1CCC(=C2c3ccccc3CCc3cccnc32)CC1    0

Exercise: Hello, I need to know if `Cc1cnc(C(=O)NCCc2ccc(S(=O)(=O)NC(=O)NC3CCCCC3)cc2)cn1` has measured inhibition at 10 µM not below 10%. Thanks!
Key: 1

====

target: BTK (Homo sapiens, UniProt Q06187); experiment: biochemical; details: read-out: BTK inhibition (%), 0.75 uM BTK, […] probe 3l, 15 min preincubation
# reported inhibition at 10 µM; entries follow
Dear colleague, please return just the value in %, with no unit written.

// below: answered molecules
CCC/C=C1\OC(=O)C2=C1CCC=C2    14.7
C[C@@H]1CCC=C2C(=O)C[C@H]3OOC(C)(C)[C@H]3[C@]21C    7.7

// next item, inhibition at 10 µM requested
Exercise: Give inhibition at 10 µM (BTK (Homo sapiens, UniProt Q06187)) of the following molecule: CC(=O)NC(CC(C)C)C(=O)O (stereo not drawn)
Key: 1.6

====

target: BTK (Homo sapiens, UniProt Q06187); assay: biochemical; settings: read-out: BTK inhibition (%), 0.75 uM BTK, […] probe 3l, 15 min preincubation
# reported inhibition at 10 µM; entries follow
Dear colleague, please return just the value in %, with no unit written.

C=CC(=O)N1CCN(C(=O)CNc2cc(I)c(Cl)cc2O)CC1    84.9

Exercise: Return reported inhibition at 10 µM; argument: `CCNC(=O)C[C@@H]1N=C(c2ccc(Cl)cc2)c2cc(OC)ccc2-n2c(C)nnc21`
Key: -20.8

Exercise: Return reported inhibition at 10 µM; argument: `CNC(=O)c1cc(Oc2ccc(NC(=O)Nc3cc(C(C)(C)C)nn3-c3ccc4ncccc4c3)c(F)c2)ccn1`
Key: 98.6

Exercise: Return reported inhibition at 10 µM; argument: `C[C@@H]1O[C@@H](O[C@H]2[C@H](Oc3c(-c4ccc(O)cc4)oc4cc(O)cc(O)c4c3=O)O[C@H](CO)[C@@H](O)[C@@H]2O)[C@H](O)[C@H](O)[C@H]1O`
Key: -1.7

Exercise: Return reported inhibition at 10 µM; argument: `C=CC[S@+]([O-])C[C@H](N)C(=O)O`
Key: -9.3

Exercise: Return reported inhibition at 10 µM; argument: `COc1cc(C(=O)O)ccc1O`
Key: 3.1

====

biological target: BTK (Homo sapiens, UniProt Q06187); assay: biochemical; conditions: read-out: BTK inhibition (%), 0.75 uM BTK, […] probe 3l, 15 min preincubation
experimental_readout: inhibition at 10 µM (%)
Dear colleague, please return just the value in %, with no unit written.

// below: answered compounds
CC1CCC(C(=O)N(c2cc(C#CC(C)(C)C)sc2C(=O)O)C2CCC(O)CC2)CC1 (stereo not drawn)    2.3
NC(=S)c1ccncc1    7.8
Cc1nc2ccc(-n3ncc(C(=O)c4cc5ccccc5[nH]4)c3N)cc2[nH]1    44.8
CCOC(=O)[C@H](CCc1ccccc1)N[C@H]1CS[C@H](c2cccs2)CN(CC(=O)O)C1=O    -1.6
COc1ccc(Oc2cc(C)c(-c3csc(NC(=O)c4ccncc4)n3)c(C)c2)cc1    20.8

Exercise: Return reported inhibition at 10 µM; argument: `CC(C)C(=O)Oc1ccc(CO)cc1[C@H](CCN(C(C)C)C(C)C)c1ccccc1`
Key: -0.8

Exercise: Return reported inhibition at 10 µM; argument: `NC(=O)CCCSc1nc(N)nc(-c2c(Cl)cc3c4c(cccc24)COC3)n1`
Key: -2.3

Exercise: Return reported inhibition at 10 µM; argument: `Oc1cc(O)c2c(c1)O[C@H](c1ccc(O)c(O)c1)[C@@H](O)C2`
Key: 37.4

Exercise: Return reported inhibition at 10 µM; argument: `CC(=O)OCCc1ccc(O)c(O)c1`
Key: -9.7

Exercise: Return reported inhibition at 10 µM; argument: `Cc1nc(N(C)C(=O)Cc2ccc(-c3ccccn3)cc2)sc1S(N)(=O)=O`
Key: 0.8

====

# reported inhibition at 10 µM; entries follow
target: BTK (Homo sapiens, UniProt Q06187); test: biochemical; settings: read-out: BTK inhibition (%), 0.75 uM BTK, […] probe 3l, 15 min preincubation
Dear colleague, please return just the value in %, with no unit written.

O=C(CO)[C@@H](O)[C@H](O)[C@@H](O)CO    -4.3
CC[C@H]1OC(=O)[C@H](C)[C@@H](O[C@H]2C[C@@](C)(OC)[C@@H](O)[C@H](C)O2)[C@H](C)[C@@H](O[C@@H]2O[C@H](C)C[C@H](N(C)C)[C@H]2O)[C@](C)(OC)C[C@@H](C)C(=O)[C@H](C)[C@@H](O)[C@]1(C)O    9.3
N#CC1(c2ccc(NC(=O)c3cccnc3NCc3ccncc3)cc2)CCCC1    2.8
COc1cc(N2CCC(N(C)C)CC2)ccc1Nc1ncc(Cl)c(Nc2ccccc2P(C)(C)=O)n1    64.8
COC(=O)C1=CC[C@@]23CC[C@@H]([C@@](C)(/C=C/C=C(\C)C(=O)O)OC2=O)[C@@]3(OC(C)=O)CC1    2.1

// next item, inhibition at 10 µM requested
Exercise: Return reported inhibition at 10 µM; argument: `CC(=O)c1cc(O)ccc1O`
Key: -1.5

====

biological target: BTK (Homo sapiens); assay: biochemical; details: read-out: BTK inhibition (%), 0.75 uM BTK, […] probe 3l, 15 min preincubation
# reported inhibition at 10 µM; entries follow
Dear colleague, please return just the value in %, with no unit written.

// below: answered compounds
Cc1c(-c2ccccc2)oc2c(C(=O)OCCN3CCCCC3)cccc2c1=O [PCM-0085770]    12.8
COc1cccc(Nc2c(C(N)=O)cnc3c(C)cc(S(=O)(=O)c4cccc(C(=O)N(C)C)c4)cc23)c1 [PCM-0095466]    0
CC(=O)N1CCN(c2ccc(NC(=O)Cc3cnc(-c4ccnc(F)c4)c(C)c3)nc2)CC1 [PCM-0215890]    -10.8

// next item, inhibition at 10 µM requested
Exercise: Return reported inhibition at 10 µM; argument: CN(C)c1ccc(-c2nc3ncc(Cl)c(N4CCN(CC(=O)Nc5nccs5)CC4)c3[nH]2)cc1 [PCM-0095191]
Key: -2.6

====

# reported inhibition at 10 µM; entries follow
biological target: BTK (Homo sapiens); test: biochemical; conditions: read-out: BTK inhibition (%), 0.75 uM BTK, […] probe 3l, 15 min preincubation
Where a SMILES comes first, the peptide text is derived from it. [ ]: non-standard residue; d: D form. Dip = N[C@H](C(=O)O)C(c1ccccc1)c1ccccc1
Dear colleague, please return just the value in %, with no unit written.

// below: answered compounds
C[C@@H]1CC[C@@]2(OC1)O[C@H]1C[C@H]3[C@@H]4CC=C5C[C@@H](O[C@@H]6O[C@H](CO)[C@@H](O[C@@H]7O[C@@H](CO)[C@H](O)[C@H]7O)[C@H](O)[C@H]6O[C@@H]6O[C@@H](C)[C@H](O)[C@@H](O)[C@H]6O)CC[C@]5(C)[C@H]4CC[C@]3(C)[C@H]1[C@@H]2C [PCM-0216403]    -10
Fc1cc(-c2cccc3ncc(-c4cnn(C5CCNCC5)c4)nc23)cc(F)c1CN1CCOCC1 [PCM-0095382]    78.6
COc1cc(Nc2ncc(F)c(Nc3ccc4c(n3)NC(=O)C(C)(C)O4)n2)cc(OC)c1OC [PCM-0095093]    32.4
CN[C@H](CC(=O)O)C(=O)O [PCM-0065539]    -10
Cn1cc(CNCC2CCN(c3ncc(C(=O)NO)cn3)CC2)c2ccccc21 [PCM-0095073]    -11.7
O=[N+]([O-])c1cn2c(n1)OC[C@@H](OCc1ccc(OC(F)(F)F)cc1)C2 [PCM-0094995]    3.1

Exercise: Return reported inhibition at 10 µM; argument: NCCCC[C@H](NC(=O)[C@@H](NC(=O)[C@H](Cc1c[nH]c2ccccc12)NC(=O)[C@H](CCCCN)NC(=O)[C@H](CCCCN)NC(=O)[C@H](Cc1c[nH]c2ccccc12)NC(=O)[C@H](Cc1c[nH]c2ccccc12)NC(=O)[C@H](CCCCN)NC(=O)[C@@H](N)CCCCN)C(c1ccccc1)c1ccccc1)C(N)=O [PCM-0215623] (H-KKWWKKW[Dip]K-NH2)
Key: -11.1

Exercise: Return reported inhibition at 10 µM; argument: Cc1cc(N2CCCCC2)nc2ccccc12 [PCM-0215982]
Key: 10

Exercise: Return reported inhibition at 10 µM; argument: CC1=C(C(=O)O)N2C(=O)[C@@H](NC(=O)[C@H](N)c3ccccc3)[C@H]2SC1 [PCM-0095179]
Key: 4.3

Exercise: Return reported inhibition at 10 µM; argument: Cn1cc(-c2ccc3ncc(Cc4ccc5ncccc5c4)n3n2)cn1 [PCM-0095521]
Key: -16.6

Exercise: Return reported inhibition at 10 µM; argument: O=C1CCc2cc(OCCCCc3nnnn3C3CCCCC3)ccc2N1 [PCM-0064629]
Key: -19.5

Exercise: Return reported inhibition at 10 µM; argument: Cc1ccc(-c2n[nH]c3c2C(c2cccc(O)c2)N(c2ccc(C(=O)O)cc2)C3=O)cc1 (stereo not drawn) [PCM-0216247]
Key: 41.7
